# assay procedure: Cytotoxicity against Wistar rat isolated peritoneal cells assessed as reduction in cell viability up to 60 uM measured after 30 mins
# Type: cell-based
# recorded conditions: peritoneal macrophage cell, 0.5 h
Numbered stars: 1 amine (or outer) side, 2 acyl side, 3 side chain; on linkers, the order of the positions; unused ones are H or OH. Bridge positions count the residues as written; N and C are the ends. Square brackets hold non-standard residues; d marks the D form. Peptide text beside a SMILES is read from it. Trp(5-F) = N[C@@H](Cc1c[nH]c2ccc(F)cc12)C(=O)O; mXylylene = c1cc(C[*:1])cc(C[*:2])c1; PEG4 = NCCOCCOCCOCCOCCC(=O)O; αMeP = C[C@@]1(C(=O)O)CCCN1; Mpa = O=C(O)CCS
test readout: Activity

Lab note: measured Activity of "C[C@H]1NC(=O)[C@H](CCCCN)NC(=O)CCSCc2cccc(c2)CSC[C@@H](C(N)=O)NC(=O)[C@]2(C)CCCN2C(=O)[C@H](Cc2ccc(O)cc2)NC(=O)[C@H]([C@@H](C)O)NC(=O)[C@@H]2C[C@H](F)CN2C(=O)[C@H](Cc2c[nH]c3ccc(F)cc23)NC(=O)[C@H](Cc2c[nH]c3ccc(F)cc23)NC1=O" was Non-Toxic

Per the record, C[C@@]12CCCN1C(=O)[C@H](Cc1ccc(O)cc1)NC(=O)[C@H](Cc1cnc[nH]1)NC(=O)[C@H](CC(=O)O)NC(=O)[C@H](Cc1c[nH]c3ccc(F)cc13)NC(=O)[C@H](Cc1c[nH]c3ccc(F)cc13)NC(=O)CNC(=O)[C@H](CCCCNC(=O)CCOCCOCCOCCOCCN)NC(=O)CCSCc1cccc(c1)CSC[C@@H](C(N)=O)NC2=O ([Mpa]K(PEG4)G[Trp(5-F)][Trp(5-F)]DHY[αMeP]C-NH2; linker 1-10 via mXylylene) has Activity of Non-Toxic

###

# assay procedure: AUC (0 to infinity) in C57BL/6 mouse at 1 mg/kg, iv by LC-MS/MS analysis
# Assay type: ADME, organism-based
# Parameters: route intravenous, time infinity, dose 1 mg/kg
# recorded conditions: C57BL/6, mouse, in vivo
Numbered stars: 1 amine (or outer) side, 2 acyl side, 3 side chain; on linkers, the order of the positions; unused ones are H or OH. Bridge positions count the residues as written; N and C are the ends. Square brackets hold non-standard residues; d marks the D form. Peptide text beside a SMILES is read from it. Trp(5-F) = N[C@@H](Cc1c[nH]c2ccc(F)cc12)C(=O)O; Lys(Me3) = C[N+](C)(C)CCCC[C@H](N)C(=O)O; X1 = O=C(CCSCc1cccc(CSCCN[*:1])c1)[*:2]; mXylylene = c1cc(C[*:1])cc(C[*:2])c1; αMeP = C[C@@]1(C(=O)O)CCCN1; Mpa = O=C(O)CCS
test readout: AUC(0-inf) (nM·h)
Field: numeric (nM·h). Do not append units.

Worked set:
The reported AUC(0-inf) of the compound "NCCCC[C@@H]1NC(=O)CCSCc2cccc(c2)CSC[C@@H](C(N)=O)NC(=O)[C@@H]2CCCN2C(=O)[C@H](Cc2ccc(O)cc2)NC(=O)[C@H](Cc2c[nH]cn2)NC(=O)[C@H](CC(=O)O)NC(=O)[C@H](Cc2c[nH]c3ccc(F)cc23)NC(=O)[C@H](Cc2c[nH]c3ccc(F)cc23)NC(=O)CNC1=O" was 242

Data point: C[C@@]12CCCN1C(=O)[C@H](Cc1ccc(O)cc1)NC(=O)[C@H](Cc1cnc[nH]1)NC(=O)[C@H](CC(=O)O)NC(=O)[C@H](Cc1c[nH]c3ccc(F)cc13)NC(=O)[C@H](Cc1c[nH]c3ccc(F)cc13)NC(=O)CNC(=O)[C@H](CCCCN)NC(=O)CCSCc1cccc(c1)CSC[C@@H](C(N)=O)NC2=O ([Mpa]KG[Trp(5-F)][Trp(5-F)]DHY[αMeP]C-NH2; linker 1-10 via mXylylene) ; AUC(0-inf) = 181

// sample "CC(C)[C@H]1NC(=O)[C@H](CCCCN)NC(=O)CCSCc2cccc(c2)CSCCNC(=O)[C@]2(C)CCCN2C(=O)[C@H](Cc2ccc(O)cc2)NC(=O)[C@H](Cc2cnc[nH]2)NC(=O)[C@H](CC(=O)O)NC(=O)[C@H](Cc2c[nH]c3ccc(F)cc23)NC(=O)[C@H](Cc2c[nH]c3ccc(F)cc23)NC1=O" , its AUC(0-inf) was 2510

Further cases:
The compound identified as "COc1ccc(C[C@@H]2NC(=O)[C@H]([C@@H](C)O)NC(=O)[C@@H]3CCC(=O)NCc4cccc(c4)C[C@H](NC(=O)[C@@H](C)NC(=O)[C@H](C)NC(=O)CCSCc4cccc(c4)CSCCNC(=O)[C@]4(C)CCCN4C2=O)C(=O)N[C@@H](Cc2c[nH]c4ccc(F)cc24)C(=O)N3)cc1" registered its AUC(0-inf) at 841

Briefly, AUC(0-inf) measured for "C[C@H]1NC(=O)[C@H](CCCCN)NC(=O)CCSCc2cccc(c2)CSCCNC(=O)[C@]2(C)CCCN2C(=O)[C@H](Cc2ccc(O)cc2)NC(=O)[C@H](Cc2cnc[nH]2)NC(=O)[C@H](CC(=O)O)NC(=O)[C@H](Cc2c[nH]c3ccc(F)cc23)NC(=O)[C@H](Cc2c[nH]c3ccc(F)cc23)NC1=O" : 492

So for COc1ccc(C[C@@H]2NC(=O)[C@H](Cc3cnc[nH]3)NC(=O)[C@H](CC(=O)O)NC(=O)[C@H](Cc3c[nH]c4ccc(F)cc34)NC(=O)[C@H](Cc3c[nH]c4ccc(F)cc34)NC(=O)[C@@H](C)NC(=O)[C@H](CCCC[N+](C)(C)C)NC(=O)CCSCc3cccc(c3)CSCCNC(=O)[C@]3(C)CCCN3C2=O)cc1 (cyclo(DHY(Me)[αMeP][X1][Lys(Me3)][dA][Trp(5-F)][Trp(5-F)])) , the logged AUC(0-inf) turned out to be 933

Reference source: ChEMBL document CHEMBL4699634
